Tested on: Staphylococcus aureus
Experiment: Antibacterial activity against methicillin-resistant Staphylococcus aureus clinical isolate 3 incubated for 16 to 18 hrs by CLSI-based microbroth dilution method
Type: functional
Details: time 16-18 hrs
What MIC was measured for each of the following?
Express the result in µg/mL but write the number alone.

Fill in: MIC of `COc1cc2c(c(O)c1C(=O)/C=C/c1ccc(OCCCCC[N+](C)(C)CC(=O)N3CCOCC3)cc1)C=CC(C)(C)O2.[Br-]` is ___ 4

Fill in: MIC of `CCCCN(CCCC)C(=O)C[N+](C)(C)CCCOc1ccc(/C=C/C(=O)c2c(OC)cc3c(c2O)C=CC(C)(C)O3)cc1.[Br-]` is ___ 2

Fill in: MIC of `COc1cc2c(c(O)c1C(=O)/C=C/c1ccc(OCCCC[N+](C)(C)CC(=O)N(C(C)C)C(C)C)cc1)C=CC(C)(C)O2.[Br-]` is ___ 2

Fill in: MIC of `CCCCNC(=O)C[N+](C)(C)CCCOc1ccc(/C=C/C(=O)c2c(OC)cc3c(c2O)C=CC(C)(C)O3)cc1.[Br-]` is ___ 1

Fill in: MIC of `CCCNC(=O)C[N+](C)(C)CCCCOc1ccc(/C=C/C(=O)c2c(OC)cc3c(c2O)C=CC(C)(C)O3)cc1.[Br-]` is ___ 2

Fill in: MIC of `COc1cc2c(c(O)c1C(=O)/C=C/c1ccc(OCCCCC[N+](C)(C)CC(=O)N(C(C)C)C(C)C)cc1)C=CC(C)(C)O2.[Br-]` is ___ 2

Fill in: MIC of `CCCCN(CCCC)C(=O)C[N+](C)(C)CCCCCOc1ccc(/C=C/C(=O)c2c(OC)cc3c(c2O)C=CC(C)(C)O3)cc1.[Br-]` is ___ 4

Fill in: MIC of `COc1cc2c(c(O)c1C(=O)/C=C/c1ccc(OCCC[N+](C)(C)CC(=O)N(C(C)C)C(C)C)cc1)C=CC(C)(C)O2.[Br-]` is ___ 1

Fill in: MIC of `CCCCCCNC(=O)C[N+](C)(C)CCCCCOc1ccc(/C=C/C(=O)c2c(OC)cc3c(c2O)C=CC(C)(C)O3)cc1.[Br-]` is ___ 2

Fill in: MIC of `CCCN(CCC)C(=O)C[N+](C)(C)CCCCOc1ccc(/C=C/C(=O)c2c(OC)cc3c(c2O)C=CC(C)(C)O3)cc1.[Br-]` is ___ 1

Fill in: MIC of `CCCNC(=O)C[N+](C)(C)CCCOc1ccc(/C=C/C(=O)c2c(OC)cc3c(c2O)C=CC(C)(C)O3)cc1.[Br-]` is ___ 2

Fill in: MIC of `CCCNC(=O)C[N+](C)(C)CCCCCOc1ccc(/C=C/C(=O)c2c(OC)cc3c(c2O)C=CC(C)(C)O3)cc1.[Br-]` is ___ 2

Fill in: MIC of `COc1cc2c(c(O)c1C(=O)/C=C/c1ccc(OCCCC[N+](C)(C)CC(=O)N(CC(C)C)CC(C)C)cc1)C=CC(C)(C)O2.[Br-]` is ___ 1

Fill in: MIC of `CCCCNC(=O)C[N+](C)(C)CCCCCOc1ccc(/C=C/C(=O)c2c(OC)cc3c(c2O)C=CC(C)(C)O3)cc1.[Br-]` is ___ 2

---

Test system: Staphylococcus aureus
Assay: Antibacterial activity against methicillin-resistant Staphylococcus aureus clinical isolate 1 incubated for 16 to 18 hrs by CLSI-based microbroth dilution method
Type: functional
Conditions: time 16-18 hrs
What MIC was measured for each of the following?
Express the result in µg/mL but write the number alone.

Fill in: MIC of `CCCCNC(=O)C[N+](C)(C)CCCCOc1ccc(/C=C/C(=O)c2c(OC)cc3c(c2O)C=CC(C)(C)O3)cc1.[Br-]` is ___ 2

Fill in: MIC of `CCCCCNC(=O)C[N+](C)(C)CCCOc1ccc(/C=C/C(=O)c2c(OC)cc3c(c2O)C=CC(C)(C)O3)cc1.[Br-]` is ___ 2

Fill in: MIC of `CCCNC(=O)C[N+](C)(C)CCCCCOc1ccc(/C=C/C(=O)c2c(OC)cc3c(c2O)C=CC(C)(C)O3)cc1.[Br-]` is ___ 2

Fill in: MIC of `COc1cc2c(c(O)c1C(=O)/C=C/c1ccc(OCCCCC[N+](C)(C)CC(=O)N3CCOCC3)cc1)C=CC(C)(C)O2.[Br-]` is ___ 2

Fill in: MIC of `COc1cc2c(c(O)c1C(=O)/C=C/c1ccc(OCCCC[N+](C)(C)CC(=O)N3CCOCC3)cc1)C=CC(C)(C)O2.[Br-]` is ___ 8

Fill in: MIC of `COc1cc2c(c(O)c1C(=O)/C=C/c1ccc(OCCC[N+](C)(C)CC(=O)N3CCSCC3)cc1)C=CC(C)(C)O2.[Br-]` is ___ 4

Fill in: MIC of `CCCNC(=O)C[N+](C)(C)CCCOc1ccc(/C=C/C(=O)c2c(OC)cc3c(c2O)C=CC(C)(C)O3)cc1.[Br-]` is ___ 4

Fill in: MIC of `COc1cc2c(c(O)c1C(=O)/C=C/c1ccc(OCCCCC[N+](C)(C)CC(=O)N(CC(C)C)CC(C)C)cc1)C=CC(C)(C)O2.[Br-]` is ___ 4

Fill in: MIC of `COc1cc2c(c(O)c1C(=O)/C=C/c1ccc(O)cc1)C=CC(C)(C)O2` is ___ 4

Fill in: MIC of `CCCCCCNC(=O)C[N+](C)(C)CCCOc1ccc(/C=C/C(=O)c2c(OC)cc3c(c2O)C=CC(C)(C)O3)cc1.[Br-]` is ___ 2

Fill in: MIC of `CCCN(CCC)C(=O)C[N+](C)(C)CCCCCOc1ccc(/C=C/C(=O)c2c(OC)cc3c(c2O)C=CC(C)(C)O3)cc1.[Br-]` is ___ 4

Fill in: MIC of `CCCN(CCC)C(=O)C[N+](C)(C)CCCOc1ccc(/C=C/C(=O)c2c(OC)cc3c(c2O)C=CC(C)(C)O3)cc1.[Br-]` is ___ 2

Fill in: MIC of `COc1cc(O)c(CC=C(C)C)c(O)c1C(=O)/C=C/c1ccc(O)cc1` is ___ 8

Fill in: MIC of `CCCCNC(=O)C[N+](C)(C)CCCCCOc1ccc(/C=C/C(=O)c2c(OC)cc3c(c2O)C=CC(C)(C)O3)cc1.[Br-]` is ___ 2

Fill in: MIC of `CCCCCCNC(=O)C[N+](C)(C)CCCCOc1ccc(/C=C/C(=O)c2c(OC)cc3c(c2O)C=CC(C)(C)O3)cc1.[Br-]` is ___ 2

Fill in: MIC of `COc1cc2c(c(O)c1C(=O)/C=C/c1ccc(OCCC[N+](C)(C)CC(=O)N3CCOCC3)cc1)C=CC(C)(C)O2.[Br-]` is ___ 8

Fill in: MIC of `COc1cc2c(c(O)c1C(=O)/C=C/c1ccc(OCCCC[N+](C)(C)CC(=O)N(C(C)C)C(C)C)cc1)C=CC(C)(C)O2.[Br-]` is ___ 8

Fill in: MIC of `CCCN(CCC)C(=O)C[N+](C)(C)CCCCOc1ccc(/C=C/C(=O)c2c(OC)cc3c(c2O)C=CC(C)(C)O3)cc1.[Br-]` is ___ 2

Fill in: MIC of `CCCCNC(=O)C[N+](C)(C)CCCOc1ccc(/C=C/C(=O)c2c(OC)cc3c(c2O)C=CC(C)(C)O3)cc1.[Br-]` is ___ 2

Fill in: MIC of `CCCCN(CCCC)C(=O)C[N+](C)(C)CCCCCOc1ccc(/C=C/C(=O)c2c(OC)cc3c(c2O)C=CC(C)(C)O3)cc1.[Br-]` is ___ 2

Fill in: MIC of `CCCCCNC(=O)C[N+](C)(C)CCCCCOc1ccc(/C=C/C(=O)c2c(OC)cc3c(c2O)C=CC(C)(C)O3)cc1.[Br-]` is ___ 2

Fill in: MIC of `CCCCCNC(=O)C[N+](C)(C)CCCCOc1ccc(/C=C/C(=O)c2c(OC)cc3c(c2O)C=CC(C)(C)O3)cc1.[Br-]` is ___ 4

Fill in: MIC of `COc1cc2c(c(O)c1C(=O)/C=C/c1ccc(OCCCCC[N+](C)(C)CC(=O)N3CCSCC3)cc1)C=CC(C)(C)O2.[Br-]` is ___ 8

Fill in: MIC of `COc1cc2c(c(O)c1C(=O)/C=C/c1ccc(OCCCC[N+](C)(C)CC(=O)N(CC(C)C)CC(C)C)cc1)C=CC(C)(C)O2.[Br-]` is ___ 2

Fill in: MIC of `CCCNC(=O)C[N+](C)(C)CCCCOc1ccc(/C=C/C(=O)c2c(OC)cc3c(c2O)C=CC(C)(C)O3)cc1.[Br-]` is ___ 2
